This collection of values is drawn from the NIST ThermoML archive (doi:10.1016/j.jct.2018.02.014).

Assay: activity coefficient (dimensionless); of the first substance listed, at infinite dilution; xn = mol fraction of the nth substance listed
Details: 328.15 K; 101.33 kPa; Liquid; Chromatography; x1 = 0
reported_property: activity coefficient

Here's what some known entries look like.
{"compound": "CC(C)OC(C)C [diisopropyl ether] + CC[N+]1(C)CCOCC1.N#CN=C=[N-]", "measured": 123}
{"compound": "CCC(C)(C)OC [2-methoxy-2-methylbutane] + CC[N+]1(C)CCOCC1.N#CN=C=[N-]", "measured": 55.7}
{"compound": "C1CCCCCC1 [cycloheptane] + CC[N+]1(C)CCOCC1.N#CN=C=[N-]", "measured": 202}
{"compound": "CC(C)=O [acetone] + CC[N+]1(C)CCOCC1.N#CN=C=[N-]", "measured": 1.7}
{"compound": "C1CCOC1 [tetrahydrofuran] + CC[N+]1(C)CCOCC1.N#CN=C=[N-]", "measured": 3.44}
{"compound": "Cc1ccccc1 [toluene] + CC[N+]1(C)CCOCC1.N#CN=C=[N-]", "measured": 8.1}

a = C=CCCCC [hex-1-ene] + CC[N+]1(C)CCOCC1.N#CN=C=[N-]
b = COC(C)(C)C [2-methoxy-2-methylpropane] + CC[N+]1(C)CCOCC1.N#CN=C=[N-]
c = CC(C)CC(C)(C)C [2,2,4-trimethylpentane] + CC[N+]1(C)CCOCC1.N#CN=C=[N-]
d = CCO [ethanol] + CC[N+]1(C)CCOCC1.N#CN=C=[N-]
Prompt line: Provide the items ranked by increasing activity coefficient. Respond with an ordered listing of the labels, as requested.
Response line: d, b, a, c
(d: 1.2, b: 33.1, a: 152, c: 853)

I = CC(C)(C)O [2-methylpropan-2-ol] + CC[N+]1(C)CCOCC1.N#CN=C=[N-]
II = CCC(=O)CC [pentan-3-one] + CC[N+]1(C)CCOCC1.N#CN=C=[N-]
Prompt line: Would you let me know which has the greater activity coefficient value, I or II ? Lab log: write the label of the selected item as the result.
Response line: II

* * *

Assay: activity coefficient (dimensionless); of the first substance listed, at infinite dilution; xn = mol fraction of the nth substance listed
Conditions: 348.15 K; 101.33 kPa; Liquid; Chromatography; x1 = 0
reported_property: activity coefficient

Here's what some known entries look like.
{"compound": "CC#N [acetonitrile] + CC[N+]1(C)CCOCC1.N#CN=C=[N-]", "activity coefficient": 1.11}
{"compound": "C#CCCCCCC [1-octyne] + CC[N+]1(C)CCOCC1.N#CN=C=[N-]", "activity coefficient": 85.6}
{"compound": "CCCC(=O)OC [methyl butanoate] + CC[N+]1(C)CCOCC1.N#CN=C=[N-]", "activity coefficient": 10}
{"compound": "CCC(=O)OC [methyl propanoate] + CC[N+]1(C)CCOCC1.N#CN=C=[N-]", "activity coefficient": 5.82}
{"compound": "CC(C)c1ccccc1 [isopropylbenzene] + CC[N+]1(C)CCOCC1.N#CN=C=[N-]", "activity coefficient": 26.9}

P = CCCc1ccccc1 [propylbenzene] + CC[N+]1(C)CCOCC1.N#CN=C=[N-]
Q = CCCCCO [pentan-1-ol] + CC[N+]1(C)CCOCC1.N#CN=C=[N-]
R = C=CCCCCCC [oct-1-ene] + CC[N+]1(C)CCOCC1.N#CN=C=[N-]
Prompt line: Ordering criterion: activity coefficient; begin with the maximum. Respond with an ordered listing of the labels, as requested.
Response line: R, P, Q
(R: 364, P: 29.1, Q: 4.56)
